- measured on: T1, human 5MP2 (ITC sample) (human, UniProt Q7L1Q6 1-419)
- T1 sequence: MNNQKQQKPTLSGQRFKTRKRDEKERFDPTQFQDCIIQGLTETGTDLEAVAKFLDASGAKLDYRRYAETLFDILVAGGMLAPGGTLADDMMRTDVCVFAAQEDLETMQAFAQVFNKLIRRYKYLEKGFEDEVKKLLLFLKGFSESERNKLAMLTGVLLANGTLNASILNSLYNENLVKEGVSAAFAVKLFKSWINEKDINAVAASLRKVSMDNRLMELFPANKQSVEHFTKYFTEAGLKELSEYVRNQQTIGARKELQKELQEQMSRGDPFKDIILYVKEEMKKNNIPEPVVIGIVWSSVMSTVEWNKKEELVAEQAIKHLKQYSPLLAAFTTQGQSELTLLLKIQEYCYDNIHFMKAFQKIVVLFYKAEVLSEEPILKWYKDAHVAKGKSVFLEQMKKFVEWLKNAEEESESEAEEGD
- experiment description: ITC
quantity kind: Kd (nM)

{"binder": "Human eIF2β_(53-136) carrying two K-boxes (domain or fragment) DLEADEEDTRKKDASDDLDDLNFFNQKKKKKKTKKIFDIDEAEEGVKDLKIESDVQEPTEPEDDLDIMLGNKKKKKKNVKFPDE", "quantity unit": "nM", "assay value": 1500}
